# subject of test: T1, monkey GPC3-His protein (monkey)
# T1 construct: Bought recombinant protein; also called monkey GPC3 protein
# method description: ELISA, monkey GPC3-His coated;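 note: Plate-coated antigen at 1 µg/mL, antibody binding 2 h at 37 °C, detected with HRP-labeled secondary antibody and TMB, absorbance at 450 nm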
observed property: OD450 at 1 nM (OD450)
Note: unit OD450 is implicit; provide only the numeric part.

F4.18.4 (antibody, human IgG1, kappa, V domains shown, Human-murine chimeric antibody) VH: QVQLHQSGAEMAKPGASVNLSCKTSGFTFTDYGISWVKQRTRQGLEWIGDIYPRHINIYYNEKFKDKATLTADRSSSTAYMELRSMTSEDSAVYFCARRGTTGRGALDYWGQGTSLTVSS VL: DILLTQSPAILSVSPGERVSFSCRASQSIGTSIHWYQQRTNGSPRLLIKYAFESISGIPSRFGGSGSRTDFTLTINSVESEDIADYYCQQTYNWPYTFGGGTKLEIKR
0.77
F1.111.11 (antibody, human IgG1, kappa, V domains shown, Human-murine chimeric antibody) VH: EVQLQQSGPELVKPGASVKISCKASGYTFTDYYMNWVKQSHGKSLEWIGDIYPNNGDTTYNQRFKGKATLTVDKSSSTAYMELRSLASEDSAVYYCACPYNNPFGYWGQGTLVTVSA VL: DVVMTQTPLSLPVSLGDQASISCRSSQSLVHSNGNTYLHWYLQKPGQSPKLLIYKVSNRFSGVPDRFSGSGSGTDFTLKISRVEAEDLGVYFCSQSTHVPWTFGGGTKLEIKR
2.57
F3.54.12 (antibody, human IgG1, kappa, V domains shown, Human-murine chimeric antibody) VH: QVQLQQSGAELVRPGASVKLSCKASGYTFTDYEMHWVKQTPVHGLEWIGAIDPETGNTAYIQKFKGKATLTTDKSSSTAYMELRSLTSEDSAVYYCTRFYSYSHWGQGTTLTVSS VL: DVVMTQTPLSLPVSLGDQASISCRSSQSLVHSNGNTYLHWYLQKPGQSPKLLIYKVSNRFSGVPDRFSGSSSGTDFTLKISRVEAEDLGVYFCSQNTHVPPTFGGGTKLEIKR
2.21
F1.153.1 (antibody, human IgG1, kappa, V domains shown, Human-murine chimeric antibody) VH: QIQLVQSGPELKKPGETVKISCKASGYTFTTAGMQWVQKMPGKGFKWIGWINTHSGEPQYAEDFKGRFAFSLETSASTAYLQISNLKNEDTATYFCARSFYYHGSSFFYFDYWGQGTTLTVSS VL: DIVMTQSQKFMSTTVGDRVSITCKASQNVGTAVAWYQQKPGQSPKLLIYSASNRYTGVPDRFTGSGSGADFTLTISNMQSEDLADYFCQQYSRYPLTFGAGTKLELKR
1.61

# evaluate next
Lab note: measured OD450 at 1 nM of F1.41.17 (antibody, human IgG1, kappa, V domains shown, Human-murine chimeric antibody) VH: EVQLVESGGDSVKPGGSLKLSCAASGFTFSSYGMSWVRQTPDKRLEWVATINSGGSYTYYQDSVKGRFTISRDNAKNTLYLQMSSLKSEDTAIYYCVRHHYGSSYDYFDYWGQGTTLTVSS VL: DIVMTQAAPSVPVMPGESVSISCRSSKSLLHSNGNTHLYWFLQRPGQSPQLLIYRMSNLASGVPDRFSGSGSGTAFTLRISRVEAEDVGVYYCMQHLEYPLTFGAGTKLELKR was 0.83
